Cited source for all entries: patent US8927559B2

- tested system: CRTH2 receptor (hCRTH2) (Homo sapiens)
- Construct: expressed in transfected cells; host or cells: HEK cells (HEK-hCRTH2 cell line), membranes
- Sequence (Q9Y5Y4 1-395): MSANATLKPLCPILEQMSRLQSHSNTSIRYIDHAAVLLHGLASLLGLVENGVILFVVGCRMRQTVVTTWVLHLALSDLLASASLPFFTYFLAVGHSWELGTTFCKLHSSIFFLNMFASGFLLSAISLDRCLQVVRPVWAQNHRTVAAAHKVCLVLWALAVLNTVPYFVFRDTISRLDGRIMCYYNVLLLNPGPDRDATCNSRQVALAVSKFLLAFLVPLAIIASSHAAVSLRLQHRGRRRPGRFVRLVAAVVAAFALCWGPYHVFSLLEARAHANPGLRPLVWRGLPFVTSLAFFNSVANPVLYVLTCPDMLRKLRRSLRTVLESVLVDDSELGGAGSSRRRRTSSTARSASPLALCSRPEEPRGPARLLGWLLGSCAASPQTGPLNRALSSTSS
- assay details: Radioligand binding assay ([3H]PGD2 competition, membranes of HEK-hCRTH2 cell line)
- run parameters: 3.0 nM [3H]PGD2, HEK-hCRTH2 membranes, 60 min, room temperature; read-out: Ki
measurement type: Ki

The cases that follow already have their Ki on record.
{"columns": ["compound", "Ki"],
 "data": [
  ["COc1ccc2[nH]c(SCc3cc(-c4ccc5c(=O)n(-c6ccc(F)cc6)c(CCCCC(=O)O)nc5c4)no3)nc2c1 [Example 39H]", "10 to 50 nM"],
  ["N#CC1CC2(CC(c3ccc4c(=O)n(-c5ccc(F)cc5)c(CCCCC(=O)O)nc4c3)=NO2)C1 (stereo not shown)", "≤ 10 nM"],
  ["C[C@]1(c2cccc(Br)c2)CC(c2ccc3c(=O)n(-c4ccc(F)cc4)c(CCCCC(=O)O)nc3c2)=NO1", "10 to 50 nM"],
  ["CCCCC1(c2ccccc2)CC(c2ccc3c(=O)n(-c4ccc(F)cc4)c(CCCCC(=O)O)nc3c2)=NO1 (stereo not shown)", "≤ 10 nM"],
  ["N#Cc1ccc(Cc2nc(-c3ccc4c(=O)n(-c5ccc(F)cc5)c(CCCCC(=O)O)nc4c3)no2)cc1", "10 to 50 nM"],
  ["O=C(O)CCCCc1nc2cc(-c3cc(C(=O)C4CC4)on3)ccc2c(=O)n1-c1ccc(F)cc1", "10 to 50 nM"]
]}

Now, please, on to the next compound.
Recall the recorded Ki for O=C(O)CCCCc1nc2cc(C3=NOC(c4ccccc4)(C(F)(F)F)C3)ccc2c(=O)n1-c1ccc(F)cc1 (stereo not shown) with CRTH2 receptor (hCRTH2) (Homo sapiens) and state it.
10 to 50 nM

---

- tested system: CRTH2 receptor (hCRTH2) (Homo sapiens, UniProt Q9Y5Y4)
- Construct: expressed in transfected cells; host or cells: HEK cells (HEK-hCRTH2 cell line), membranes
- assay details: Radioligand binding assay ([3H]PGD2 competition, membranes of HEK-hCRTH2 cell line)
- run parameters: 3.0 nM [3H]PGD2, HEK-hCRTH2 membranes, 60 min, room temperature; read-out: Ki
pKi: −log10 of the molar value.
measurement type: pKi

Entry CC1(c2ccc(C#N)cc2)CC(c2ccc3c(=O)n(-c4ccc(Cl)cc4)c(CCCCC(=O)O)nc3c2)=NO1 (stereo not shown) has what pKi?
≥ 8.00
